Below, each of the binders is paired with its reported Kd value.
TARGET_SYSTEM: T1, human Aβ (1-40) peptide (human)
T1 construct: also called Aβ1-40 fibers
EXPERIMENT: SPR, immobilized fibers;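 note: biacore SPR using in vitro grown Aβ1-40 or Aβ1-42 fibrils immobilized on the chip with Fab analytes, KD from koff/kon fits or equilibrium isotherms based on total Fab concentration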

BINDER	Kd, nM
MS-Roche #7.2.H8 Fab (Fab, V domains shown) VH: QVQLVESGGGLVQPGGSLRLSCAASGFTFSSYAMSWVRQAPGKGLEWVSAINASGHKTYYADSVKGRFTISRDNSKNTLYLQMNSLRAEDTAVYYCARGKGNTHKPYGYVRYFDVWGQGTLVTVSS VL: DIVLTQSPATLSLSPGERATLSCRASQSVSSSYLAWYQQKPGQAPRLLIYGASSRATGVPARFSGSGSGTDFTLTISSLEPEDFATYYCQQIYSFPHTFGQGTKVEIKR	1.5
MS-Roche #7.2.H7 Fab (Fab, V domains shown) VH: QVQLVESGGGLVQPGGSLRLSCAASGFTFSSYAMSWVRQAPGKGLEWVSAINSRGSDTHYADSVKGRFTISRDNSKNTLYLQMNSLRAEDTAVYYCARGKGNTHKPYGYVRYFDVWGQGTLVTVSS VL: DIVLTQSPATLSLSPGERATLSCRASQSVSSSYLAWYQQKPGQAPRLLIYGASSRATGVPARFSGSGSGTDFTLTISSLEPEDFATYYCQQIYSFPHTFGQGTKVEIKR	15.5
MS-Roche #7.9.H9 Fab (Fab, V domains shown, assembled) VH: QVQLVESGGGLVQPGGSLRLSCAASGFTFSSYAMSWVRQAPGKGLEWVSAINGKGNKKYYADSVKGRFTISRDNSKNTLYLQMNSLRAEDTAVYYCARGKGNTHKPYGYVRYFDVWGQGTLVTVSS VL: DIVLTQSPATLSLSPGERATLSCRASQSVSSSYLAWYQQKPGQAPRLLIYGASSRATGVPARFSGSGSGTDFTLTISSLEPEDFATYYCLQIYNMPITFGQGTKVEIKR	0.9
